Experiment: Stability in human intestinal tissue homogenate
Assay type: in vitro ADME
Details: 40 mg/ml human intestinal homogenate, read-out: t½ (min) human
Quantity Name: half-life at 1 μM

Task: # get_value(readout='half-life at 1 μM', item= CN(c1ccc(NC(=O)c2cccc(-c3cc(C(=O)Nc4ccncc4F)ccc3CN)c2)cc1)C1CCOC1=O (centres unmarked) )
Output: > 120 min

Task: Endpoint output: half-life at 1 μM of NCc1ccc(C(=O)Nc2ccncc2F)cc1-c1cccc(C(=O)Nc2ccc(SCC3CCOC3=O)cc2)c1 (centres unmarked) . Value?
Output: > 120 min

====

Experiment: Stability in mouse intestinal homogenate
Assay type: in vitro ADME
Settings: 40 mg/ml mouse intestinal homogenate, read-out: t½ (min) mouse
Quantity Name: half-life at 1 μM

Task: What value of measured half-life at 1 μM is listed for CN(c1ccc(NC(=O)c2cccc(-c3cc(C(=O)Nc4ccncc4F)ccc3CN)c2)cc1)C1CCOC1=O (stereo not drawn) ?
Output: > 120 min

Task: Quick one: half-life at 1 μM for NCc1ccc(C(=O)Nc2ccncc2F)cc1-c1cccc(C(=O)Nc2ccc(SCC3CCOC3=O)cc2)c1 (stereo not drawn) ?
Output: > 120 min

Task: Would you mind telling me what half-life at 1 μM value was observed for NCc1ccc(C(=O)Nc2ccncc2F)cc1-c1cccc(C(=O)Nc2ccc(NC3CCOC3=O)cc2)c1 (stereo not drawn) ?
Output: > 120 min
